Test system: Rattus norvegicus
procedure-summary: In vivo DOPA accumulation in reserpine pretreated rat limbic system by subcutaneous administration
Format: functional
condition-info: sc
Reported values of ED50 for individual entries
Number only, in µmol/kg; omit the unit.

Field: example entries. Status: answers known.
C[C@@H]1c2cccc(O)c2CC[C@@H]1N(C)C :: 28
CCN(CC)[C@H]1CCc2c(O)cccc2[C@H]1C :: 1.4

# lookup: ED50 of `CCCN[C@H]1CCc2c(O)cccc2[C@H]1C`
4

What value of measured ED50 is listed for `CCCN(CCC)[C@H]1CCc2c(OC)cccc2[C@H]1C` ?
5.5

I'd like to know its ED50. The molecule in question is CN1CCc2cccc3c2[C@H]1Cc1ccc(O)c(O)c1-3 [APOMORPHINE]
0.041

// ED50 lookup, key: `CCCN(CCC)[C@H]1CCc2c(O)cccc2[C@H]1C`
0.3

// data source = ChEMBL document CHEMBL1123708
